Origin of measurements: patent US10517867B2

- experiment.notes: In vitro metabolic stability in rat intestine S9
- Format: in vitro ADME
- condition.parameters: rat, pH 7.4; 37° C., 10 μM compound, 1 mg/mL S9, NADPH regeneration system; read-out: Rat intestine S9 T1/2
Documented half-life at 10 µM across a set of molecules
readout.type: half-life at 10 µM (min)

{"molecule": "CC[C@@H](C(C)OC(=O)OC(C)OC(=O)CCCCCCOP(=O)([O-])[O-])n1ncn(-c2ccc(N3CCN(c4ccc(OC[C@@H]5CO[C@@](Cn6cncn6)(c6ccc(F)cc6F)C5)cc4)CC3)cc2)c1=O.[Na+].[Na+] (some centres unmarked)", "measurement.unit": "min", "observed.measurement": 17.6}
{"molecule": "CC[C@@H](C(C)OC(=O)OC(C)OC(=O)CCCCCOS(=O)(=O)[O-])n1ncn(-c2ccc(N3CCN(c4ccc(OC[C@@H]5CO[C@@](Cn6cncn6)(c6ccc(F)cc6F)C5)cc4)CC3)cc2)c1=O.[Na+] (some centres unmarked)", "measurement.unit": "min", "observed.measurement": 27.9}
{"molecule": "CC[C@@H](C(C)OC(=O)OC(C)OC(=O)CCCCOS(=O)(=O)[O-])n1ncn(-c2ccc(N3CCN(c4ccc(OC[C@@H]5CO[C@@](Cn6cncn6)(c6ccc(F)cc6F)C5)cc4)CC3)cc2)c1=O.[Na+] (some centres unmarked)", "measurement.unit": "min", "observed.measurement": 28.2}
{"molecule": "CC[C@@H]([C@H](C)OC(=O)OC(C)OC(=O)CCCCCOP(=O)([O-])[O-])n1ncn(-c2ccc(N3CCN(c4ccc(OC[C@@H]5CO[C@@](Cn6cncn6)(c6ccc(F)cc6F)C5)cc4)CC3)cc2)c1=O.[Na+].[Na+] (some centres unmarked)", "measurement.unit": "min", "observed.measurement": 19.4}
{"molecule": "CC[C@@H](C(C)OC(=O)OCOC(=O)CCCCCCOP(=O)([O-])[O-])n1ncn(-c2ccc(N3CCN(c4ccc(OC[C@@H]5CO[C@@](Cn6cncn6)(c6ccc(F)cc6F)C5)cc4)CC3)cc2)c1=O.[Na+].[Na+] (some centres unmarked)", "measurement.unit": "min", "observed.measurement": 18.2}
{"molecule": "CC[C@@H]([C@H](C)OC(=O)OC(C)OC(=O)Cc1ccc(OS(=O)(=O)[O-])cc1)n1ncn(-c2ccc(N3CCN(c4ccc(OC[C@@H]5CO[C@@](Cn6cncn6)(c6ccc(F)cc6F)C5)cc4)CC3)cc2)c1=O.[Na+] (some centres unmarked)", "measurement.unit": "min", "observed.measurement": 45.4}
{"molecule": "CC[C@@H]([C@H](C)OC(=O)OC(C)OC(=O)CCCCCCCOS(=O)(=O)[O-])n1ncn(-c2ccc(N3CCN(c4ccc(OC[C@@H]5CO[C@@](Cn6cncn6)(c6ccc(F)cc6F)C5)cc4)CC3)cc2)c1=O.[Na+] (some centres unmarked)", "measurement.unit": "min", "observed.measurement": 52.6}
{"molecule": "CC[C@@H](C(C)OC(=O)OC(C)OC(=O)CCCOS(=O)(=O)[O-])n1ncn(-c2ccc(N3CCN(c4ccc(OC[C@@H]5CO[C@@](Cn6cncn6)(c6ccc(F)cc6F)C5)cc4)CC3)cc2)c1=O.[Na+] (some centres unmarked)", "measurement.unit": "min", "observed.measurement": 19.3}

---

- System: Candida albicans ATCC10231
- experiment.notes: Systemic fungal infection in mice, intragastric administration
- Assay type: in vivo, ICR mice
- condition.parameters: Candida albicans, ATCC10231, po, 144 h; 20 mg/kg intragastric once daily for 5 days; day 6; read-out: survival rate of mice, day 6
Catalogue of responders at 20 mg/kg values

{"compound": "CC[C@@H]([C@H](C)OC(=O)OC(C)OC(=O)Cc1ccc(OS(=O)(=O)[O-])cc1)n1ncn(-c2ccc(N3CCN(c4ccc(OC[C@@H]5CO[C@@](Cn6cncn6)(c6ccc(F)cc6F)C5)cc4)CC3)cc2)c1=O.[Na+] (stereo partly drawn) [ST0080]", "responders at 20 mg/kg, %": 70}
{"compound": "CC[C@@H](C(C)OC(=O)OC(C)OC(=O)CCCOS(=O)(=O)[O-])n1ncn(-c2ccc(N3CCN(c4ccc(OC[C@@H]5CO[C@@](Cn6cncn6)(c6ccc(F)cc6F)C5)cc4)CC3)cc2)c1=O.[Na+] (stereo partly drawn) [ST0077]", "responders at 20 mg/kg, %": 70}
{"compound": "CC[C@@H](C(C)OC(=O)OC(C)OC(=O)CCCCOS(=O)(=O)[O-])n1ncn(-c2ccc(N3CCN(c4ccc(OC[C@@H]5CO[C@@](Cn6cncn6)(c6ccc(F)cc6F)C5)cc4)CC3)cc2)c1=O.[Na+] (stereo partly drawn) [ST0078]", "responders at 20 mg/kg, %": 70}
